experiment: Permeability across apical to basolateral side in human Caco2 cells; format: ADME, cell-based; conditions: Caco-2, read-out: permeability
VALUE KIND: Papp A→B

>>> assay_value("CC(C)N(C)[C@@H]1CC[C@H](N2CC[C@H](NC(=O)c3cccc(C(F)(F)F)c3)C2=O)[C@H](CS(=O)(=O)c2ccccc2)C1")
"< 1.5 ×10⁻⁶ cm/s"
>>> assay_value("CC(C)N(C)[C@@H]1CC[C@H](N2CC[C@H](NC(=O)c3cccc(C(F)(F)F)c3)C2=O)[C@H](CS(=O)(=O)C(C)(C)C)C1")
"3 ×10⁻⁶ cm/s"
>>> assay_value("CCS(=O)(=O)C[C@@H]1C[C@H](N(C)C(C)C)CC[C@@H]1N1CC[C@H](NC(=O)c2cccc(C(F)(F)F)c2)C1=O")
"< 1.5 ×10⁻⁶ cm/s"
>>> assay_value("CC(C)N(C)[C@@H]1CC[C@H](N2CC[C@H](NC(=O)c3cccc(C(F)(F)F)c3)C2=O)[C@H](CS(=O)(=O)C(C)C)C1")
"< 1.5 ×10⁻⁶ cm/s"
>>> assay_value("CC(C)N(C)[C@@H]1CC[C@H](N2CC[C@H](NC(=O)c3cccc(C(F)(F)F)c3)C2=O)[C@H](CS(C)(=O)=O)C1")
"< 1.5 ×10⁻⁶ cm/s"

====

test: Clearance in rat at 6 mg/kg, iv; format: ADME, organism-based; set-up: dose 6 mg/kg, route intravenous; conditions: in vivo
VALUE KIND: clearance (mL/min/kg)

>>> assay_value("CC(C)N(C)[C@@H]1CC[C@H](N2CC[C@H](NC(=O)c3cccc(C(F)(F)F)c3)C2=O)[C@H](CS(C)(=O)=O)C1")
42

====

inhibition for assorted molecules
species: Rattus norvegicus; assay: Inhibition of rat sodium channel site 2 at 10 uM relative to control
VALUE KIND: inhibition

>>> assay_value("CC(C)N(C)[C@@H]1CC[C@H](N2CC[C@H](NC(=O)c3cccc(C(F)(F)F)c3)C2=O)[C@H](CS(C)(=O)=O)C1")
"3%"
>>> assay_value("CCS(=O)(=O)C[C@@H]1C[C@H](N(C)C(C)C)CC[C@@H]1N1CC[C@H](NC(=O)c2cccc(C(F)(F)F)c2)C1=O")
"26%"
>>> assay_value("CC(C)N(C)[C@@H]1CC[C@H](N2CC[C@H](NC(=O)c3cccc(C(C)(C)C)n3)C2=O)[C@H](CS(C)(=O)=O)C1")
"46%"
>>> assay_value("CC(C)N(C)[C@@H]1CC[C@H](N2CC[C@H](NC(=O)c3cccc(OC(F)(F)F)c3)C2=O)[C@H](CS(C)(=O)=O)C1")
"32%"
>>> assay_value("CC(C)N(C)[C@@H]1CC[C@H](N2CC[C@H](NC(=O)c3cccc(OC(F)(F)F)c3)C2=O)[C@H](CS(=O)(=O)C(C)(C)C)C1")
"61%"
>>> assay_value("CC(C)N(C)[C@@H]1CC[C@H](N2CC[C@H](NC(=O)c3cccc(C(F)(F)F)n3)C2=O)[C@H](CS(C)(=O)=O)C1")
"0%"
>>> assay_value("Cc1ccc(C(=O)N[C@H]2CCN([C@H]3CC[C@@H](N(C)C(C)C)C[C@H]3CS(C)(=O)=O)C2=O)cc1C(F)(F)F")
"36%"
>>> assay_value("CC(C)N(C)[C@@H]1CC[C@H](N2CC[C@H](NC(=O)c3cccc(C(F)(F)F)c3)C2=O)[C@H](CS(=O)(=O)C(C)(C)C)C1")
"48%"
>>> assay_value("CC(C)N(C)[C@@H]1CC[C@H](N2CC[C@H](NC(=O)c3cc(F)cc(C(F)(F)F)c3)C2=O)[C@H](CS(=O)(=O)C(C)(C)C)C1")
"48%"
